System: Key Broadleaf Weed and Crop Species
assay-remarks: Post-emergent Test II herbicidal activity (Table 5)
Type: in vivo
run-conditions: post-emergence, 336 h; HELAN: sunflower (Helianthus annuus); 70 g ai/ha; post-emergent; 14 days after application; read-out: Visual Growth Reduction (%) 14 Days After Application HELAN
measurement-label: pest or weed control at 70 g/ha

Known results for molecules:
compound-string	measurement-label	obs-value
Nc1c(Cl)c(C(=O)O)nc(-c2ccc(I)cc2)c1Cl	pest or weed control at 70 g/ha	95 to 100%
C#Cc1ccc(-c2nc(C(=O)OC)c(Cl)c(N)c2Cl)cc1	pest or weed control at 70 g/ha	95 to 100%
COC(=O)c1nc(-c2ccc(OC(F)F)cc2)cc(N)c1Cl	pest or weed control at 70 g/ha	0 to 29%
COC(=O)c1nc(-c2ccc(I)cc2)c(C)c(N)c1Cl	pest or weed control at 70 g/ha	95 to 100%
Nc1c(F)c(-c2cc(F)c(Br)cc2F)nc(C(=O)O)c1Cl	pest or weed control at 70 g/ha	95 to 100%
Nc1cc(-c2ccc(Br)cc2F)nc(C(=O)O)c1Cl	pest or weed control at 70 g/ha	95 to 100%

Fill in pest or weed control at 70 g/ha for each of the 8 molecules listed.
1. Nc1cc(-c2ccc(Br)c(F)c2)nc(C(=O)O)c1Cl
2. COC(=O)c1nc(-c2ccc(Br)c(F)c2)c(Cl)c(N)c1Cl
3. COc1c(N)nc(-c2ccc(Br)c(F)c2)nc1C(=O)O
4. Nc1c(Cl)c(C(=O)O)nc(-c2ccc(Br)cc2)c1Cl
5. COC(=O)c1nc(-c2cc(F)c(I)cc2F)nc(N)c1OC
6. C#Cc1ccc(-c2nc(C(=O)O)c(C=C)c(N)c2F)cc1
7. COC(=O)c1nc(-c2ccc(Br)cc2)c(Cl)c(N)c1Cl
8. COC(=O)c1nc(-c2ccc(OC(F)F)cc2)c(C)c(N)c1Cl

1: 95 to 100%; 2: 95 to 100%; 3: 95 to 100%; 4: 95 to 100%; 5: 85 to 94%; 6: 85 to 94%; 7: 95 to 100%; 8: 75 to 84%

Quickly give me recorded pest or weed control at 70 g/ha for COC(=O)c1nc(-c2ccc(I)c(F)c2)cc(N)c1Cl 85 to 94%

====

System: KCHSC: kochia (Kochia scoparia)
assay-remarks: Post-emergent Test III, herbicidal activity in wheat and barley
Type: in vivo
run-conditions: probit analysis, dose for growth reduction of 50 percent, 21 days after application
measurement-label: GR50 KCHSC (g ai/ha)
One number for each entry, in g ai/ha.

Parameters: items (list). Returns: GR50 KCHSC for each item.
1. Nc1c(F)c(-c2ccc(I)cc2)nc(C(=O)O)c1Cl [Compound 45]
2. COC(=O)c1nc(-c2ccc(Br)c(F)c2F)c(F)c(N)c1Cl [Compound 109]
3. Nc1c(F)c(-c2ccc(Cl)c(F)c2)nc(C(=O)O)c1Cl [Compound 217]
4. COC(=O)c1nc(-c2ccc(Br)cc2)c(F)c(N)c1Cl [Compound 138]
5. COC(=O)c1nc(-c2ccc(F)cc2)c(F)c(N)c1Cl [Compound 204]

1. 2
2. 3
3. 2
4. 1
5. 2

Parameters: items (list). Returns: GR50 KCHSC for each item.
1. COC(=O)c1nc(-c2ccc(I)cc2)c(F)c(N)c1Cl [Compound 118]
2. Nc1cc(-c2ccc(Br)c(F)c2F)nc(C(=O)O)c1Cl [Compound 91]

1: 3; 2: 2

====

System: STEME: common chickweed (Stellaria media)
assay-remarks: Post-emergent Test III, herbicidal activity in wheat and barley
Assay type: in vivo
run-conditions: Stellaria media, post-emergence, 504 h; 140 g ai/ha; read-out: Visual Growth Reduction (%) 21 Days After Application STEME
Please respond with reported pest or weed control at 140 g/ha for every item in the list.

Need pest or weed control at 140 g/ha for each of these compounds.
1. Nc1c(F)c(-c2ccc(OC(F)F)cc2)nc(C(=O)O)c1Cl
2. N#Cc1ccc(-c2nc(C(=O)O)c(Cl)c(N)c2F)cc1
3. COC(=O)c1nc(-c2ccc(I)cc2)c(F)c(N)c1Cl
4. COC(=O)c1nc(-c2ccc(Cl)c(F)c2)c(F)c(N)c1Cl
5. COC(=O)c1nc(-c2ccc(OC(F)F)cc2)c(F)c(N)c1Cl
6. COC(=O)c1nc(-c2ccc(C#N)cc2)c(F)c(N)c1Cl
7. COC(=O)c1nc(-c2ccc(Br)c(F)c2F)cc(N)c1Cl

1: 0 to 29%; 2: 45 to 59%; 3: 30 to 44%; 4: 75 to 84%; 5: 0 to 29%; 6: 0 to 29%; 7: 0 to 29%

====

Tested on: Key Broadleaf Weed and Crop Species
assay-remarks: Post-emergent Test II herbicidal activity (Table 5)
Format: in vivo
run-conditions: post-emergence, 336 h; BRSNN: oilseed-rape, canola (Brassica napus); application rate 70 g ai/ha; post-emergent; 14 days after application; read-out: Visual Growth Reduction (%) 14 Days After Application, BRSNN
Would you kindly list pest or weed control at 70 g/ha for each of these compounds?

compound-string	measurement-label	obs-value
COc1c(N)nc(-c2cc(F)c(C)cc2F)nc1C(=O)O	pest or weed control at 70 g/ha	95 to 100%

// for each compound below, give its pest or weed control at 70 g/ha
1. Cc1cc(F)c(-c2cc(N)c(Cl)c(C(=O)O)n2)cc1F
2. Nc1c(F)c(-c2cc(F)c(C(F)F)cc2F)nc(C(=O)O)c1Cl
3. Cc1cc(F)c(-c2nc(C(=O)O)c(Cl)c(N)c2F)cc1F

["60 to 74%", "95 to 100%", "60 to 74%"]

====

Test system: VERPE: bird's-eye speedwell (veronica persica)
assay-remarks: Post-emergent Test III, herbicidal activity in wheat and barley
Assay type: in vivo
run-conditions: probit analysis, dose for growth reduction of 80 percent, 21 days after application
measurement-label: GR80 VERPE

Here's what some known entries look like.
compound	GR80 VERPE
COC(=O)c1nc(-c2ccc(Br)c(F)c2F)cc(N)c1Cl [Compound 114]	>140 g ai/ha
Nc1cc(-c2ccc(Br)c(F)c2F)nc(C(=O)O)c1Cl [Compound 91]	>140 g ai/ha
COC(=O)c1nc(-c2ccc(Cl)c(F)c2)c(F)c(N)c1Cl [Compound 216]	>140 g ai/ha

Below: the item to evaluate.
Determine from records and report GR80 VERPE for COC(=O)c1nc(-c2ccc(Br)cc2)c(F)c(N)c1Cl [Compound 138] 49 g ai/ha

====

I'd appreciate it if you could supply pest or weed control at 70 g/ha values for the items below.
System: CIRAR: Canada thistle (Cirsium arvense)
assay-remarks: Post-emergent Test III, herbicidal activity in wheat and barley
Type: in vivo
run-conditions: Cirsium arvense, post-emergence, 504 h; Table 8; 70 g ai/ha; post-emergent; 21 d; read-out: Visual Growth Reduction (%) 21 Days After Application CIRAR

compound-string	measured-on	pest or weed control at 70 g/ha
COc1c(N)nc(-c2ccc(Br)c(F)c2)nc1C(=O)O	CIRAR: Canada thistle (Cirsium arvense)	85 to 94%
Nc1c(Cl)c(C(=O)O)nc(-c2ccc(Br)c(F)c2)c1Cl	CIRAR: Canada thistle (Cirsium arvense)	85 to 94%
COC(=O)c1nc(-c2ccc(I)c(F)c2)c(C)c(N)c1Cl	CIRAR: Canada thistle (Cirsium arvense)	95 to 100%

// each listed molecule needs a value for pest or weed control at 70 g/ha
1. Nc1cc(-c2cc(F)c(Br)cc2F)nc(C(=O)O)c1Cl
2. COc1c(N)nc(-c2ccc(I)c(F)c2)nc1C(=O)O
3. COC(=O)c1nc(-c2ccc(I)c(F)c2)nc(N)c1OC

1. 75 to 84%
2. 75 to 84%
3. 75 to 84%

====

Assignment: determine reported pest or weed control at 70 g/ha for the given compounds.
System: Key Broadleaf Weed and Crop Species
assay-remarks: Post-emergent Test II herbicidal activity (Table 5)
Format: in vivo
run-conditions: post-emergence, 336 h; EPHHL: wild poinsettia (Euphorbia heterophylla); application rate 70 g ai/ha; 14 days after application; read-out: Visual Growth Reduction (%) 14 Days After Application, EPHHL

compound-string	measured-on	pest or weed control at 70 g/ha
C#Cc1ccc(-c2nc(C(=O)OC)c(Cl)c(N)c2F)c(F)c1	Key Broadleaf Weed and Crop Species	45 to 59%
C#Cc1ccc(-c2nc(N)c(OC)c(C(=O)OC)n2)c(F)c1	Key Broadleaf Weed and Crop Species	0 to 29%
COC(=O)c1nc(-c2ccc(C(F)F)c(F)c2)cc(N)c1Cl	Key Broadleaf Weed and Crop Species	95 to 100%
COC(=O)c1nc(-c2ccc(I)c(F)c2F)c(F)c(N)c1Cl	Key Broadleaf Weed and Crop Species	95 to 100%
COC(=O)c1nc(-c2ccc(Br)c(F)c2F)cc(N)c1Cl	Key Broadleaf Weed and Crop Species	95 to 100%

Give me pest or weed control at 70 g/ha for each of these compounds, listed below.
1. Nc1c(F)c(-c2ccc(OC(F)F)c(F)c2F)nc(C(=O)O)c1Cl
2. C#Cc1ccc(-c2nc(C(=O)O)c(Cl)c(N)c2F)c(F)c1F

1: 0 to 29%; 2: 45 to 59%

Please state, for each entry, its recorded pest or weed control at 70 g/ha.
1. COC(=O)c1nc(-c2ccc(OC(F)F)c(F)c2)c(F)c(N)c1Cl
2. COC(=O)c1nc(-c2ccc(Br)cc2)cc(N)c1Cl

95 to 100%
95 to 100%

# credit: patent US9113629B2
